# assay target: PDE4D (Homo sapiens, UniProt Q08499)
# Sequence (Q08499 whole entry): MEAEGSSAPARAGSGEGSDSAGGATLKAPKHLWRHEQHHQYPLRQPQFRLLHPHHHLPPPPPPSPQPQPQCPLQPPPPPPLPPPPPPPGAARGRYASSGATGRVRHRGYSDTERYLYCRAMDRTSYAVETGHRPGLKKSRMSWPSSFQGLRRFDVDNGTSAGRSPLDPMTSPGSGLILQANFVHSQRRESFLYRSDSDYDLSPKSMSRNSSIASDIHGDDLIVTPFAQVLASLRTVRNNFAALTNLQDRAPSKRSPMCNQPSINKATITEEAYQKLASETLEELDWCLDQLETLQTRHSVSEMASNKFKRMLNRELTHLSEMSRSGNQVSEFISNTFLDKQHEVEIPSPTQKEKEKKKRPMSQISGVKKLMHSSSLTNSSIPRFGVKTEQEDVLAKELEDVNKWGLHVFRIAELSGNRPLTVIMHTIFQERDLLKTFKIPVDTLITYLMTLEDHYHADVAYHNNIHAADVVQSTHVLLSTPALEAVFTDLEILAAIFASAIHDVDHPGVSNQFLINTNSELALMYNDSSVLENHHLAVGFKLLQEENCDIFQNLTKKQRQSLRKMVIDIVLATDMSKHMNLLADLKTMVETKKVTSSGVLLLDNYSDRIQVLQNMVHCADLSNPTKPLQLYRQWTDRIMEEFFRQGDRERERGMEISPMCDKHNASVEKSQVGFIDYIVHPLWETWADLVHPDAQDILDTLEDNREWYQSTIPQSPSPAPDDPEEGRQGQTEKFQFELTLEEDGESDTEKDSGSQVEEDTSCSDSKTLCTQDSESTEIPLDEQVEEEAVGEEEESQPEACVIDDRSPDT
# assay: recombinant PDE4 activity assay, [3H]cAMP hydrolysis, dose-response
metric name: IC50

QUERY: Answer with the recorded IC50 of COc1ccc(C(=O)Nc2ccccc2C)cc1OC [CBU91, 3,4-dimethoxy-N-(o-tolyl)benzamide] only.
RESULT: ~450 nM
